# System: C-C chemokine receptor type 2 (Mus musculus, UniProt P51683)
# Sequence (P51683 whole entry): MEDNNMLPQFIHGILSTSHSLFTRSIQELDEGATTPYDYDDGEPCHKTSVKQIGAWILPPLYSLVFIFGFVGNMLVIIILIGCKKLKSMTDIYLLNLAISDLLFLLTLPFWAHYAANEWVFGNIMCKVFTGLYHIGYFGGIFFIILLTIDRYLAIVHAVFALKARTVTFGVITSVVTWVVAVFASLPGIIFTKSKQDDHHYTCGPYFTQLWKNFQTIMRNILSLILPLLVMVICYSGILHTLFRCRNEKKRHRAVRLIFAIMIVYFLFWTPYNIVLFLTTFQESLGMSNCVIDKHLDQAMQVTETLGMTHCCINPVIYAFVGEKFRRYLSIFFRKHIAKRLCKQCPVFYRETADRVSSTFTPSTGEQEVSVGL
# Assay Remarks: Antagonist activity at mouse CCR2 receptor expressed in human THP-1 cells assessed as inhibition of MCP1-induced Ca2+ flux by FLIPR analysis
Experimental Endpoint: IC50 (nM)
Just the number please, in nM, no unit attached.

So for "CC(C)N1CCN[C@@H](C(=O)N2CCN(C(=O)Nc3ccc(Cl)c(Cl)c3)CC2)C1" , the logged IC50 turned out to be 1200

----------
# Assay Remarks: Intrinsic clearance in rat hepatocytes assessed per 10^6 cells
# Assay type: ADME, cell-based, Hepatocyte
# Setup Conditions: read-out: CLH
Experimental Endpoint: hepatocyte CLint (µL/min/1e6 cells)
Just the number please, in µL/min/1e6 cells, no unit attached.

So for "O=C(Nc1ccc(Cl)c(Cl)c1)N1CCN(C[C@@H]2CCCN(C3CC3)C2)CC1" , the logged hepatocyte CLint turned out to be 11
